Values compiled from patent US20190100519A1.

test: Solubility assessment (saturated solutions, HPLC); assay type: physicochemical; settings: 1 h
result_type: Solubility Water (µg/mL)

* Cl.O=C(Nc1nc2cccc(-c3ccc(CN4CCS(=O)(=O)CC4)cc3)n2n1)C1CC1 [Form A] | 1080
* Cl.O=C(Nc1nc2cccc(-c3ccc(CN4CCS(=O)(=O)CC4)cc3)n2n1)C1CC1 [Form C] | 5180
* Cl.O=C(Nc1nc2cccc(-c3ccc(CN4CCS(=O)(=O)CC4)cc3)n2n1)C1CC1 [Form D] | 3000
* Cl.O=C(Nc1nc2cccc(-c3ccc(CN4CCS(=O)(=O)CC4)cc3)n2n1)C1CC1 [Form B] | 5020
